System: IGROV1 ovarian
Experiment: NCI tumour cell line growth inhibition, 48 h; in the data active = GI50 below about 0.43 µM; inactive = the rest
Lab note: assign the record to one of yes (1) = active, no (0) = inactive

Kindly provide the recorded test outcome for the following molecule: COc1ccccc1/C=C1\COc2ccc(-c3ccccc3)cc2C1=O
no (0)

* * *

Catalogue of TGI values
Tested on: 786-0 renal
Assay: NCI tumour cell line growth inhibition, 48 h

786-0 renal / TGI / N#Cc1nc2cc(Cl)ccc2nc1N1CCN(c2ccc([N+](=O)[O-])cc2)CC1 : value?
> 100 µM

// map O=C(CCN1CCCC1)Nc1ccc2c(NCc3ccccc3)c3ccccc3nc2c1 to recorded TGI (system: 786-0 renal)
1.99 µM

Return TGI measured with 786-0 renal given this molecule: Cc1cn2c(/C=C3/C(=O)Nc4c3ccc3ccccc43)c(C(F)(F)F)nc2s1
39 µM

Query the reported TGI for 786-0 renal; item: O[C@@H]1C=C[C@]23CCN(Cc4cc5c(cc42)OCO5)[C@@H]3C1
> 100 µM

Param readout = TGI; param system = 786-0 renal; param query = O=[N+]([O-])c1cccc(/C=N/NC2=CS(=O)(=O)C=C2)c1 ; response: value
> 100 µM

Form field: TGI recorded for C=C(C(=O)O[C@H]1C/C(C)=C/CC/C(CO)=C/[C@H]2C(=O)OC(=C)[C@H]12)C(O)CO (stereo not given in full) with 786-0 renal (enter value)
18.4 µM

More entries:
API: value(readout=TGI, system=786-0 renal) for record COc1cc(/C=C2\CC/C(=C\c3cc(OC)c(O)c(OC)c3)C2=O)cc(OC)c1O
> 100 µM

Hi! What's the reported TGI for C[N+]1=c2c3cccc4cccc(c(=O)n2CC1)c43 on 786-0 renal?
> 100 µM

Notebook: pull reported TGI for 786-0 renal, entry COc1ccccc1-n1c(=O)n(C)c(=O)n1C(C)(C)C
> 100 µM

What measured TGI is associated with COC(=O)c1cc(-c2ccccc2)[nH]c1N/N=C/c1c(Cl)cccc1Cl on 786-0 renal?
8.39 µM

Hello, I am looking for reported TGI with 786-0 renal for CNc1nnc(CCCCCCCCc2nnc(NC)o2)o1 . Could you help?
47 µM

* * *

Tested on: SW-620 colon
Assay: NCI tumour cell line growth inhibition, 48 h
# Lookup of reported TGI keyed by entry

Please give the measured TGI for this compound: C[C@H]1[C@H](C)N1CC(O)Cn1ccnc1[N+](=O)[O-] (stereo partly drawn)
> 100 µM

# TGI lookup, item CCOC(=O)NC(=O)c1cn(CCN2CCN(C(=O)CNC(=O)CNC(=O)Cn3cc(C(=O)NC(=O)OCC)c(=O)[nH]c3=O)CC2)c(=O)[nH]c1=O
> 100 µM

Switching to the query record.
Name the reported TGI value associated with the compound COc1ccc(C(=O)Cn2c(C(=O)c3ccccc3)nc3ccccc32)cc1
> 100 µM

* * *

List of GI50 values.
Tested on: NCI-H226 lung
Test: NCI tumour cell line growth inhibition, 48 h

Example results:
Request the reported GI50 associated with CCCCNNC(=O)c1ccc(Br)cc1
9.86 µM

Field request: GI50 | item: N#Cc1nc(-c2ccc(F)cc2)oc1S(=O)(=O)N1CCCCC1
19.1 µM

Can you share its GI50? I mean this molecule: COc1ccc2c(c1)[n+](=O)c(C(=O)c1cccs1)c(C(F)(F)F)n2[O-]
9.58 µM

Others:
Query (molecule): [2H]C([2H])([2H])NC(=O)c1nnc(NC(=O)C2CC2)cc1Nc1cccc(-c2ncn(C)n2)c1OC ; field requested: GI50
> 100 µM

* * *

Test system: NCI-H522 lung
Experiment: NCI tumour cell line growth inhibition, 48 h
Endpoint: TGI

Value wanted: TGI (NCI-H522 lung) of entry CCCC[C@@H](C)/C=C1\CN2CCC[C@H]2[C@@](C)(OCc2ccccc2)[C@@H]1O
> 50 µM

Request - read-out TGI | tested on NCI-H522 lung | molecule O=P1(N2CCOCC2)OCCO1
> 100 µM

Report TGI for COc1cc2cc(C(=O)N3CC(COS(C)(=O)=O)c4ccc(NC(=O)OCc5ccccc5)cc43)[nH]c2c(OC)c1OC (stereo not given) tested on NCI-H522 lung.
> 100 µM

More entries:
Missing value: TGI, NCI-H522 lung, entry CSC(=S)Nc1cc(C)cc(C)n1 . Fill in?
> 31.6 µM

Missing value: TGI, NCI-H522 lung, entry O=C(O)CCC(=O)OCN1C(=O)C2C3C=CC(C2C1=O)C1C2C(=O)N(COC(=O)CCC(=O)O)C(=O)C2C31 (stereo not given) . Fill in?
> 85.8 µM

* * *

Tested on: T-47D breast
Assay: NCI tumour cell line growth inhibition, 48 h
Endpoint: TGI

Hello, I am looking for reported TGI with T-47D breast for C/C=C(\C)C(=O)OC1CC(OC(C)=O)C2(C(=O)OC)COC3C2C1(C)C1C2(C(=O)OC)OCC1(C3O)C1(O)C3CC(C4(O)C=COC4O3)C1(C)O2 (stereo not given) . Could you help?
> 100 µM

# returns recorded TGI (system: T-47D breast) for NNC(=O)Nc1nc2ccc(NN)cc2[nH]1
> 100 µM

Give the reported TGI for Cc1ccc(S(=O)(=O)Oc2ccc3c4c(c(=O)oc3c2)CCCCCC4)cc1 (system: T-47D breast).
> 100 µM

Look up TGI with T-47D breast for this compound: COc1cc2c(cc1OC)-c1ncc3c(OC)ccc(OC)c3c1C2
> 100 µM

Could you share what TGI was measured for [2H]C([2H])([2H])NC(=O)c1nnc(NC(=O)C2CC2)cc1Nc1cccc(-c2ncn(C)n2)c1OC , tested on T-47D breast?
> 100 µM

---
Quick check: TGI on T-47D breast, item COc1ccc(-n2c(=O)c3[nH]c(=S)[nH]c3n(-c3ccc(OC)cc3)c2=S)cc1 ?
> 100 µM

Entry NS(=O)(=O)c1nc(S(=O)(=O)O)c2[nH]cnc2n1 , system T-47D breast: what TGI was measured?
> 100 µM

API: value(readout= TGI, system= T-47D breast, query= C1=C(c2ccccc2)C(N2CCOCC2)Oc2ccccc21 (stereo not given) )
> 100 µM

Notebook: pull reported TGI for T-47D breast, entry N#CC1(C#N)C(C#N)(C#N)C1(C#N)C(N)=O
> 100 µM

Recorded TGI for C[C@]12CC[C@H]3[C@@H](CCC4=CC(=O)C=C[C@@]43OC(=O)C(F)(F)F)[C@@H]1CCC2=O with T-47D breast, please?
> 100 µM

* * *

System: SNB-19 CNS
Assay: NCI tumour cell line growth inhibition, 48 h
Each entry below carries its reported TGI.

// below: answered compounds
// query TGI value for entry CCCn1c(SCCSc2c3ccccc3c(-c3nc(F)nc(F)n3)n2CCC)c2ccccc2c1-c1nc(F)nc(F)n1
> 100 µM

# get_value(readout='TGI', item= Nc1ccc(-c2nc3ccccc3s2)cc1Cl )
> 100 µM

Can you look up the measured TGI of COc1ccc(/C=C(/c2ccccc2)[N+](=O)[O-])c(OC)c1 for me?
3.05 µM

State the recorded TGI for this entry: O=C(/C=C(\O)C(=O)O)/C=C(\O)c1ccccc1
> 100 µM

What value of measured TGI is listed for CC(C)C1CO[C@]2(C)CCC(=O)N12 (stereo partly drawn) ?
> 100 µM

Which TGI is listed for C1=NCCNCCNCCN=Cc2ccc(cc2)OCc2cccc(n2)COc2ccc1cc2 ?
> 100 µM

Now turn to the next compound.
Which value of TGI has been reported for O=C1NC(=O)c2ccccc2/C1=C/c1ccc2c(c1)OCO2 in the records?
> 100 µM

* * *

Measured TGI, listed per entry for reference.
Tested on: SK-MEL-5 melanoma
Experiment: NCI tumour cell line growth inhibition, 48 h

Recorded results for 5 compounds are shown here.
Recorded TGI of N#Cc1nc2cc(Cl)ccc2nc1N1CCN(c2ccc([N+](=O)[O-])cc2)CC1 , please.
> 100 µM

I'd like to know its TGI. The compound in question is COc1ccc(-n2c(=O)c3[nH]c(=S)[nH]c3n(-c3ccc(OC)cc3)c2=S)cc1
> 100 µM

May I ask what TGI has been recorded for C#CC[C@@]12CC(=O)C[C@@H]1CCC1(C2)OCCO1 (tested in a mixture with another compound) ?
> 100 µM

Report TGI for C=CO/N=[N+](\[O-])N(CC)CC please.
> 100 µM

So what's the measured TGI for this one? COc1ccc(C#Cn2nnc3ccccc32)cc1
> 100 µM

New cases:
Looking for the measured TGI of Cc1ccc(S(=O)(=O)Oc2ccc3c4c(c(=O)oc3c2)CCCCCC4)cc1 , can you help?
> 100 µM

// query TGI value for entry CCn1c(=O)c2nc(SC)sc2n(-c2ccc(C)cc2)c1=O
> 100 µM

// lookup TGI for CCN1C/C(=C\c2ccc(Cl)cc2)c2nc(N)c(C#N)c(-c3ccc(Cl)cc3)c2C1
> 100 µM

Where do these numbers come from? They come from PubChem BioAssay (NCI).
